This collection of values is drawn from patent US20230265151A1.

# measuredOn: T1, human GIP receptor (human, UniProt P48546 22-466)
# T1 sequence (looked up): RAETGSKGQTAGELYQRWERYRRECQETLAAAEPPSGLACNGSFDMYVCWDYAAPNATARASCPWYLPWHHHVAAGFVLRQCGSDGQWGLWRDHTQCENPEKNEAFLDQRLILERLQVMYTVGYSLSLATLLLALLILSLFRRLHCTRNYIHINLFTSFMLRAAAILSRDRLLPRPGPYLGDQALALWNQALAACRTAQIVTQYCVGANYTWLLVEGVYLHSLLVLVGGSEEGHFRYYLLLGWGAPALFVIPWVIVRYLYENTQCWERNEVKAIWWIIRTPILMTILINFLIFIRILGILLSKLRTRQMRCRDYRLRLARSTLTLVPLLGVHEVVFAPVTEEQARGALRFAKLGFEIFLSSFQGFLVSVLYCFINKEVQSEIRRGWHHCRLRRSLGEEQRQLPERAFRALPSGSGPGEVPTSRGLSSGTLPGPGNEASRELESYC
# procedureSummary: cell-based or functional assay
*1 amine or outer side, *2 acyl side, *3 side chain or, on linkers, in order; H or OH if unused. Where no end group is shown, it is not given here. Side-chain parts run from the residue outwards. [ ]: non-standard residue; d: D form. The star is where a group is joined. αMePhe(2-F) = C[C@](N)(Cc1ccccc1F)C(=O)O; γGlu = O=C(O)[C@H](CCC(=O)[*:2])N[*:1]; C14 diacid = O=C(O)CCCCCCCCCCCCC(=O)*; αMeF = C[C@](N)(Cc1ccccc1)C(=O)O; αMeL = CC(C)C[C@](C)(N)C(=O)O; Orn = NCCC[C@H](N)C(=O)O; AEEA = NCCOCCOCC(=O)O; Aib = CC(C)(N)C(=O)O
Recorded measurements of Emax, cAMP, one per entry
readout: Emax, cAMP (%)

| binder | readout | scaleUnit | numericResult |
| --- | --- | --- | --- |
| Y[Aib]EGT[αMePhe(2-F)]TSDV[Aib]I[αMeL]LD[Orn]K([AEEA-AEEA-γGlu-C14 diacid])AQ[Aib]E[αMeF]IK([AEEA-AEEA-γGlu-C14 diacid])[αMeF]LIEGGPSSGAPPPS-NH2 [Example 123] | Emax, cAMP | % | 94.9 |
| YXEGTXTSDXSIXLDXKAQXEFIXXLIEGKPSSGAPPPS (Aib2, αMeF(2F)6, 4Pal10, αMeL13, Orn16, Aib20, D-Glu24, αMeY25, K17 and K30: K(AEEA2-(γ-Glu)-CO-(CH2)10-CH3), C-terminal NH2) [Example 140] | Emax, cAMP | % | 98.5 |
| YXEGTXTSDKSIXLDXIAQXKXIXXLIEGGPSSGAPPPS (Aib2, αMeF(2F)6, αMeL13, Orn16, Aib20, αMeF22, D-Glu24, αMeY25, K10 and K21: K(AEEA2-(γ-Glu)-CO-(CH2)12-CO2H), C-terminal NH2) [Example 109] | Emax, cAMP | % | 84.8 |
| YXEGTXTSDXSIXLDXIAQXEFIKXLIKGGPSSGAPPPS (Aib2, αMeF(2F)6, 4Pal10, αMeL13, Orn16, Aib20, αMeY25, K24 and K28: K(AEEA2-(γ-Glu)-CO-(CH2)12-CO2H), C-terminal NH2) [Example 70] | Emax, cAMP | % | 89.1 |
| YXEGTXTSDXSIXLDXKAQXEFIXXLIEGXKSSGAPPPS (Aib2, αMeF(2F)6, 4Pal10, αMeL13, Orn16, Aib20, D-Glu24, αMeY25, Orn30, K17 and K31: K(AEEA2-(γ-Glu)-CO-(CH2)12-CO2H), C-terminal NH2) [Example 152] | Emax, cAMP | % | 97.9 |
| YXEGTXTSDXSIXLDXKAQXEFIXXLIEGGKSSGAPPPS (Aib2, αMeF(2F)6, 4TAA10, αMeL13, Orn16, Aib20, D-Glu24, αMeY25, K17 and K31: K(AEEA2-(γ-Glu)-CO-(CH2)12-CO2H), C-terminal NH2) [Example 144] | Emax, cAMP | % | 90 |
| YXEGTXTSDXXIXLDXKAQXEFIKXLIEGGPSSGAPPPS (Aib2, αMeF(2F)6, 4Pal10, Aib11, αMeL13, Orn16, Aib20, αMeY25, K17 and K24: K(AEEA2-(γ-Glu)-CO-(CH2)12-CO2H), C-terminal NH2) [Example 113] | Emax, cAMP | % | 97.9 |
